Assay: Solubility (Solubilités) in water and dimethyl sulfoxide
Assay type: physicochemical
Conditions: water; eau; read-out: Solubilités : Soluble dans l'eau
Value type: solubility (mg/mL)

| Molecule | Value type | Meas value |
| --- | --- | --- |
| COc1ccc(COCC(O)CNC(C)(C)C)cc1 (stereo not shown) | solubility | 100 |

a = COc1ccccc1COCC(O)CNC(C)C (stereo not shown)
b = CC(C)(C)NCC(O)COC/C=C/c1ccccc1 (stereo not shown)
Req: Between a and b , whose recorded solubility is greater? When you have decided, please share the label of that item.
Resp: a
(a: 100 mg/mL, b: 10 mg/mL)

I = Cc1cccc(COCC(O)CNC(C)C)c1 (stereo not shown)
II = CC(C)(C)NCC(O)COC1CCCc2ccccc21 (stereo not shown)
III = CC(C)NCC(O)COC1CCCc2ccccc21 (stereo not shown)
Req: Exam item: list the entries in increasing order of solubility. State the ranking by listing the labels in the requested order.
Resp: II, III, I

# credit: patent EP0037781A1
